Reference for the values: ChEMBL document CHEMBL1132382

# test.description: physchem
# reported.conditions: buffer, pH 7.4
measured.quantity: solubility

compound: NCC(=O)NCC(=O)Nc1c(S(N)(=O)=O)cc(S(N)(=O)=O)c(Cl)c1Cl
solubility: 59 mM

What measured solubility goes with CCNC1CC(C)S(=O)(=O)c2sc(S(=O)(=O)NC(=O)CNC)cc21 (configuration not stated) ?
62 mM

What measured solubility goes with `NCC(=O)Nc1ccc(S(=O)(=O)Nc2nnc(S(N)(=O)=O)s2)cc1` ?
65 mM

What measured solubility goes with `CNCC(=O)Nc1cc(Cl)c(S(N)(=O)=O)cc1S(N)(=O)=O` ?
54 mM

What measured solubility goes with `NCC(=O)NCC(=O)Nc1ccc(S(=O)(=O)Nc2nnc(S(N)(=O)=O)s2)cc1` ?
51 mM

What measured solubility goes with `NCC(=O)NCC(=O)NS(=O)(=O)c1nc2ccc(OCCO)cc2s1` ?
50 mM

What measured solubility goes with `CN(CC(=O)NCCC(=O)Nc1nnc(S(N)(=O)=O)s1)C(=N)N` ?
75 mM
